Molecular target: recombinant human GR (Homo sapiens, UniProt P04150)
Construct: purchased Panvera/Invitrogen P2812 (kit P2893)
Sequence (P04150 1-777): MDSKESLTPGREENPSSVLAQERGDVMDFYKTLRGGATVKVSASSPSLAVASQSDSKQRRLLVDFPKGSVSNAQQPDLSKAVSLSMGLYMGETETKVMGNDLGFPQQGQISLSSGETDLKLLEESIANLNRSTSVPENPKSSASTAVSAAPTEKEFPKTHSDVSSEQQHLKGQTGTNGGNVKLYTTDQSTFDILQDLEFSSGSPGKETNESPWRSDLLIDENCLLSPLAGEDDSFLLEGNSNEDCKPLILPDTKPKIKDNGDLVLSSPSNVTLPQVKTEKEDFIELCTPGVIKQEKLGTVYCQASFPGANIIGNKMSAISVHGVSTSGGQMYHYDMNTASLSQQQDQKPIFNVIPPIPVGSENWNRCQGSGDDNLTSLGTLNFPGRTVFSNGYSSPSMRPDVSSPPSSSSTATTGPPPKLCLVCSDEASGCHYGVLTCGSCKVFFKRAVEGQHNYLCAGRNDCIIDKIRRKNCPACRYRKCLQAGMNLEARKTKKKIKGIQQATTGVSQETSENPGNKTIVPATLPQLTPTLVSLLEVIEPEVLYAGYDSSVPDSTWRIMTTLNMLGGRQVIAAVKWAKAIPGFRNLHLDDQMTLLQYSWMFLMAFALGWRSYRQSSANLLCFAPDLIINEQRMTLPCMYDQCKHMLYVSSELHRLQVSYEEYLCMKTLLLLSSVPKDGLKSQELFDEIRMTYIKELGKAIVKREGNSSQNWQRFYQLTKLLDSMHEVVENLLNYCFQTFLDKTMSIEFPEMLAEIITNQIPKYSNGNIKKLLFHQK
Assay: Human Glucocorticoid Receptor (GR) Assay (fluorescence polarization, Panvera/Invitrogen kit)
Details: GS Red tracer, 2 hours at room temperature, 100% control 10 μM Dexamethasone, read-out: Inhibition of GR binding, IC50
Text: Human Glucocorticoid Receptor (GR) Assay The assay is based on a commercial kit from Panvera/Invitrogen (Part number P2893). The assay technology is fluorescence polarization. […] The plate was read in an Analyst plate reader (LJL Biosystems/Molecular Devices Corporation) or other similar plate reader capable of recording fluorescence polarization (excitation wavelength 530 nm, emission wavelength 590 nm and a dichroic mirror at 561 nm).
pIC50: −log10 of the molar value.
readoutName: pIC50

# count of solved cases: 2
structureSmiles	target	pIC50
CCC[C@@H]1O[C@@H]2C[C@H]3[C@@H]4CCC5=Cc6c(cnn6-c6ccc(F)cc6)C[C@]5(C)[C@H]4[C@@H](O)C[C@]3(C)[C@]2(C(=O)CO)O1	recombinant human GR (Homo sapiens, UniProt P04150)	8.64
CC1(C)O[C@@H]2C[C@H]3[C@@H]4CCC5=Cc6c(cnn6-c6ccc(F)c(CO)c6)C[C@]5(C)[C@H]4[C@@H](O)C[C@]3(C)[C@]2(C(=O)CO)O1	recombinant human GR (Homo sapiens, UniProt P04150)	8.26

P = CCC[C@@H]1O[C@@H]2C[C@H]3[C@@H]4CCC5=Cc6c(cnn6-c6ccc(F)c(CO)c6)C[C@]5(C)[C@H]4[C@@H](O)C[C@]3(C)[C@]2(C(=O)CO)O1
Q = CCC[C@@H]1O[C@@H]2C[C@H]3[C@@H]4CCC5=Cc6c(cnn6-c6ccc(F)c(CNCCCO)c6)C[C@]5(C)[C@H]4[C@@H](O)C[C@]3(C)[C@]2(C(=O)CO)O1
R = CCC[C@@H]1O[C@@H]2C[C@H]3[C@@H]4CCC5=Cc6c(cnn6-c6ccc(F)c(CN7CCOCC7)c6)C[C@]5(C)[C@H]4[C@@H](O)C[C@]3(C)[C@]2(C(=O)CO)O1
rank_up(items): orders items by reported pIC50 in ascending numerical order. Arrange the labels as the request states and list them. Q, R, P
(Q: 7.47, R: 8.10, P: 8.51)

###

Target: recombinant human GR (Homo sapiens, UniProt P04150)
Assay: Human Glucocorticoid Receptor (GR) Assay (fluorescence polarization, Panvera/Invitrogen kit)
Conditions: GS Red tracer, 2 hours at room temperature, 100% control 10 μM Dexamethasone, read-out: Inhibition of GR binding, IC50
Text: Human Glucocorticoid Receptor (GR) Assay The assay is based on a commercial kit from Panvera/Invitrogen (Part number P2893). The assay technology is fluorescence polarization. […] The plate was read in an Analyst plate reader (LJL Biosystems/Molecular Devices Corporation) or other similar plate reader capable of recording fluorescence polarization (excitation wavelength 530 nm, emission wavelength 590 nm and a dichroic mirror at 561 nm).
readoutName: IC50 (nM)

compound	target	valueUnit	IC50
CCC[C@H]1O[C@@H]2C[C@H]3[C@@H]4CCC5=Cc6c(cnn6-c6ccc(F)c(CN7CCN(C)CC7)c6)C[C@]5(C)[C@H]4[C@@H](O)C[C@]3(C)[C@]2(C(=O)CO)O1 [Example 5]	recombinant human GR (Homo sapiens, UniProt P04150)	nM	77

1 = CCC[C@@H]1O[C@@H]2C[C@H]3[C@@H]4CCC5=Cc6c(cnn6-c6ccc(F)c(CN7CCCC7)c6)C[C@]5(C)[C@H]4[C@@H](O)C[C@]3(C)[C@]2(C(=O)CO)O1 [Example 3]
2 = CCC[C@H]1O[C@@H]2C[C@H]3[C@@H]4CCC5=Cc6c(cnn6-c6ccc(F)c(CO)c6)C[C@]5(C)[C@H]4[C@@H](O)C[C@]3(C)[C@]2(C(=O)CO)O1 [Example 17]
# compare IC50 for 1 vs 2 ; return the one with the smaller value Which one? Tell me its label. 2
(2: 6.6 nM, 1: 37 nM)
